Value source: ChEMBL document CHEMBL5678800

assay: Toxicity in nude mouse xenografted with human GEO cells assessed as mortality at 6.25 mg/kg, po administered for 17 days relative to control; format: organism-based; details: in vivo, time 17 day
Property name: mortality at 408 h (%)

C[C@@]1(C(=O)Nc2ccc(F)nc2)CCCN1c1nc(Nc2cc(C3CC3)n[nH]2)c2cccn2n1 | 0

* * *

molecular target: Protein kinase C alpha type (Homo sapiens); experiment: Inhibition of recombinant PKCalpha (unknown origin) incubated for 60 mins in presence of ATP by electrophoretic caliper fluorescence analysis
Property name: IC50 (nM)

C[C@@]1(C(=O)Nc2ccc(F)nc2)CCCN1c1nc(Nc2cc(C3CC3)n[nH]2)c2cccn2n1 | 2530

* * *

experiment: Toxicity in nude mouse xenografted with human GEO cells assessed as mortality at 25 mg/kg, po administered for 3 days in presence of cetuximab at 0.25 mg/kg relative to control; assay type: organism-based; settings: in vivo, time 3 day
Property name: mortality at 72 h (%)

C[C@@]1(C(=O)Nc2ccc(F)nc2)CCCN1c1nc(Nc2cc(C3CC3)n[nH]2)c2cccn2n1 | 0

* * *

experiment: Plasma concentration in nude mouse xenografted with mouse IGF-1R-Sal cells po administered for 2 hrs by LC-MS/MS analysis
Property name: concentration at 2 h (nM)

C[C@@]1(C(=O)Nc2ccc(F)nc2)CCCN1c1nc(Nc2cc(C3CC3)n[nH]2)c2cccn2n1 | 94

* * *

experiment: Plasma concentration in nude mouse xenografted with mouse IGF-1R-Sal cells at 3.125 mg/kg, po administered for 2 hrs by LC-MS/MS analysis; assay type: ADME, organism-based
Property name: concentration at 2 h (nM)

C[C@@]1(C(=O)Nc2ccc(F)nc2)CCCN1c1nc(Nc2cc(C3CC3)n[nH]2)c2cccn2n1 | 7

* * *

Target: UniProt Q05513
Sequence (Q05513 whole entry): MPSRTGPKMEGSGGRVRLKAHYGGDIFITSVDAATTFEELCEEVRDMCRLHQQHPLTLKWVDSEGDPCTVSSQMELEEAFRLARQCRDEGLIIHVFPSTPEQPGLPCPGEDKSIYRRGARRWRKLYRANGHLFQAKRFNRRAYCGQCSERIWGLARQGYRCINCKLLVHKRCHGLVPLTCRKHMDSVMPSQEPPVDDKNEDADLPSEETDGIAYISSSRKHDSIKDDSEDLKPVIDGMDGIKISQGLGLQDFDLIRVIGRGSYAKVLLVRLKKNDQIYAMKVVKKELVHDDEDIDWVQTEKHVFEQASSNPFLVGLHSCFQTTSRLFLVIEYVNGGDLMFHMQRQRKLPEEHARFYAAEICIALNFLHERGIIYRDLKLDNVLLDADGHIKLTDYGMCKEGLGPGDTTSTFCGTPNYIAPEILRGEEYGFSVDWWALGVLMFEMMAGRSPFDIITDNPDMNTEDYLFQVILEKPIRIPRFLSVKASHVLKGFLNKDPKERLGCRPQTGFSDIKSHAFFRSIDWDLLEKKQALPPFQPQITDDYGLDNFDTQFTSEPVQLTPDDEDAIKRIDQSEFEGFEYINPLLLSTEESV
Test: Inhibition of recombinant PKCzeta (unknown origin) incubated for 60 mins in presence of ATP by electrophoretic caliper fluorescence analysis
pIC50: −log10 of the molar value.
Property name: pIC50

C[C@@]1(C(=O)Nc2ccc(F)nc2)CCCN1c1nc(Nc2cc(C3CC3)n[nH]2)c2cccn2n1 | < 4.30
